// provenance: patent US20110086759A1

Here the recorded pest or weed control at 1000 g/ha is given for each entry.
Test system: Alopecurus myosuroides (ALOMY)
Experiment: Post-emergence biological efficacy, glasshouse pot test
Assay type: in vivo
Details: 312 h, post-emergence, 1,000 g/ha, evaluated after 13 days (100=total damage; 0=no damage), read-out: Percentage damage caused to weed species, ALOMY
Protocol: Seeds of Alopecurus myosuroides (ALOMY), Setaria faberi (SETFA), Echinochloa crus-galli (ECHCG), Solanum nigrum (SOLNI), Amaranthus retoflexus (AMARE) and Ipomea hederaceae (IPOHE) were sown in standard soil in pots. […] The test plants were then grown on under controlled conditions in a glasshouse (at 24/16° C., day/night; 14 hours light; 65% humidity) and watered twice daily. After 13 days the test was evaluated (100=total damage to plant; 0=no damage to plant).
endpointName: pest or weed control at 1000 g/ha (%)

>>> df
                                    compound                     assaytarget  readoutvalue
 0  COC(=O)c1nc(C2CC2)nc(NC(Cc2ccc(F)cc2)C(=O)OC)c1Cl (centres unmarked) [Compound 4-284]  Alopecurus myosuroides (ALOMY)            30
 1  COC(=O)c1nc(C2CC2)nc(N[C@@H](Cc2cccc(C(F)(F)F)c2)C(=O)OC)c1Cl [4-286 (S)]  Alopecurus myosuroides (ALOMY)            10
 2  COC(=O)c1nc(C2CC2)nc(NCc2cccc(F)c2F)c1Cl [Compound 4-96]  Alopecurus myosuroides (ALOMY)            20
 3  COC(=O)c1nc(C2CC2)nc(NCc2ccco2)c1Cl [Compound 4-125]  Alopecurus myosuroides (ALOMY)            60
 4  COC(=O)c1nc(C2CC2)nc(NCc2c(F)ccc(F)c2F)c1Cl [Compound 4-118]  Alopecurus myosuroides (ALOMY)            60
 5  O=C(O)c1nc(C2CC2)nc(NC2CC2)c1Cl [Compound 1-1]  Alopecurus myosuroides (ALOMY)            40
 6  COC(=O)c1nc(C2CC2)nc(NCC(F)c2ccc(Br)cc2F)c1Cl (centres unmarked) [Compound 4-240]  Alopecurus myosuroides (ALOMY)            10
 7  COC(=O)c1nc(C2CC2)nc(NCC(O)c2ccc(O)cc2)c1Cl (centres unmarked) [Compound 4-259]  Alopecurus myosuroides (ALOMY)            20
 8  COC(=O)c1nc(C2CC2)nc(N[C@H]2CCCC[C@@H]2O)c1Cl (relative stereo) [4-36 (trans)]  Alopecurus myosuroides (ALOMY)            20
 9  COC(=O)c1nc(C2CC2)nc(NCCCn2ccnc2)c1Cl [Compound 4-250]  Alopecurus myosuroides (ALOMY)             0
10  COC(=O)c1nc(C2CC2)nc(N[C@@H](CO)[C@@H](O)c2ccc([N+](=O)[O-])cc2)c1Cl [4-275 (S,S)]  Alopecurus myosuroides (ALOMY)            40

----------
System: Solanum nigrum (SOLNI)
Assay: Pre-emergence biological efficacy, glasshouse pot test
Type: in vivo
Conditions: 312 h, pre-emergence, rate 1,000 g/ha, evaluated after 13 days (100=total damage to plant; 0=no damage), read-out: Percentage damage caused to weed species, SOLNI
One threshold, 50%, splits the recorded pest or weed control at 1000 g/ha values: lower ones are t, equal or higher ones are f.

In [3]: df
Out[3]:
                                 inputsmiles  category
 0  CCN(Cc1c(F)cccc1Cl)c1nc(C2CC2)nc(C(=O)OC)c1Cl         f
 1  COC(=O)c1nc(-c2ccc(C(F)(F)F)cc2)nc(NCc2ccco2)c1Cl         f
 2  COC(=O)c1nc(-c2ccc(Cl)c(F)c2Cl)nc(NCc2ccco2)c1Cl         f
 3  COC(=O)c1nc(-c2cc(F)c(F)cc2F)nc(NCc2ccco2)c1Cl         t
 4  C=CCN(Cc1ccc(F)cc1)c1nc(C2CC2)nc(C(=O)OC)c1Cl         t
 5  COC(=O)c1nc(-c2ccc(Cl)c(F)c2F)nc(NCc2ccco2)c1Cl         f
 6  CC(C)COC(=O)c1nc(C2CC2)nc(NCc2ccco2)c1Cl         f
 7             COC(=O)c1nc(Cl)nc(NC2CC2)c1Cl         t
 8   COC(=O)c1nc(C2CC2)nc(N(C)Cc2cccnc2)c1Cl         t
 9  CCN(Cc1ccnc(C)n1)c1nc(C2CC2)nc(C(=O)OC)c1Cl         t
10  CCN(Cc1ccccc1)c1nc(C2CC2)nc(C(=O)OC)c1Cl         f
11  COC(=O)c1nc(-c2ccc(C)c([N+](=O)[O-])c2)nc(NCc2ccco2)c1Cl         t
12  COC(=O)c1nc(-c2ccc(OC)c(OC)c2)nc(NCc2ccco2)c1Cl         t
13   CCN(Cc1ccco1)c1nc(C2CC2)nc(C(=O)OC)c1Cl         f

----------
Test system: Alopecurus myosuroides (ALOMY)
Experiment: Post-emergence biological efficacy, glasshouse pot test
Type: in vivo
Settings: 312 h, post-emergence, 1,000 g/ha, evaluated after 13 days (100=total damage; 0=no damage), read-out: Percentage damage caused to weed species, ALOMY
endpointName: pest or weed control at 1000 g/ha (%)

In [3]: df
Out[3]:
                                   molecule  readoutvalue
0  COC(=O)c1nc(C2CC2)nc(NC(C)C(O)c2ccc(O)cc2)c1Cl (stereo not drawn)            30
1       COC(=O)c1nc(C2CC2)nc(NC2CCCCC2)c1Cl            30
2    COC(=O)c1nc(C2CC2)nc(NCCCc2ccccc2)c1Cl            30

----------
System: Alopecurus myosuroides (ALOMY)
Assay: Pre-emergence biological efficacy, glasshouse pot test
Assay type: in vivo
Conditions: 312 h, pre-emergence, rate 1,000 g/ha, evaluated after 13 days (100=total damage to plant; 0=no damage), read-out: Percentage damage caused to weed species, ALOMY
endpointName: pest or weed control at 1000 g/ha

                                    molecule  readoutvalue
 0   COC(=O)c1nc(C2CC2)nc(N(C)Cc2nonc2C)c1Cl           30%
 1  COC(=O)c1nc(-c2ccc(OC)cc2OC)nc(NCc2ccco2)c1Cl            0%
 2  COC(=O)c1nc(C2CC2)nc(N(C/C=C/c2ccccc2OC)C(C)C)c1Cl           10%
 3       COC(=O)c1nc(Cl)nc(NCc2ccc(C)o2)c1Cl            0%
 4  COC(=O)c1nc(C2CC2)nc(N(CCO)Cc2ccc(Cl)nc2)c1Cl           10%
 5  COC(=O)c1nc(C2CC2)nc(N(C)CC(O)c2ccccc2)c1Cl (stereo not shown)           10%
 6  CC(C)COC(=O)c1nc(C2CC2)nc(NCc2ccco2)c1Cl           40%
 7  COC(=O)c1nc(-c2ccc(Cl)c(C(F)(F)F)c2F)nc(NCc2ccco2)c1Cl           30%
 8  COC(=O)c1nc(-c2ccc(Cl)cc2)nc(NC2CC2)c1Cl           40%
 9  COC(=O)c1nc(-c2ccc(Cl)c(C#N)c2)nc(NCc2ccco2)c1Cl            0%
10  COC(=O)c1nc(-c2ccc(F)c(Cl)c2)nc(NCc2ccco2)c1Cl           30%
11  C=CCN(Cc1cc(Cl)ccc1OC)c1nc(C2CC2)nc(C(=O)OC)c1Cl           10%
12  COC(=O)c1nc(-c2ccc(C(F)(F)F)c(Cl)c2)nc(NCc2ccco2)c1Cl            0%
13  COC(=O)c1nc(-c2cc(F)c(F)cc2F)nc(NCc2ccco2)c1Cl            0%
14  COc1c(Cl)ccc(-c2nc(NCc3ccco3)c(Cl)c(C(=O)O)n2)c1F           70%
15   COC(=O)c1nc(-c2ccc(Cl)s2)nc(NC2CC2)c1Cl            0%

----------
Here the recorded pest or weed control at 1000 g/ha is given for each entry.
System: Echinochloa crus-galli (ECHCG)
Experiment: Pre-emergence biological efficacy, glasshouse pot test
Format: in vivo
Conditions: 312 h, pre-emergence, rate 1,000 g/ha, evaluated after 13 days (100=total damage to plant; 0=no damage), read-out: Percentage damage caused to weed species, ECHCG
endpointName: pest or weed control at 1000 g/ha (%)

>>> print(df.to_string())
                                 inputsmiles                       endpointname  readoutvalue
 0  CCCN(Cc1ccccc1F)c1nc(C2CC2)nc(C(=O)OC)c1Cl  pest or weed control at 1000 g/ha             0
 1  CCCN(Cc1ccccc1)c1nc(C2CC2)nc(C(=O)OC)c1Cl  pest or weed control at 1000 g/ha             0
 2  COc1c(Cl)ccc(-c2nc(NCc3ccco3)c(Cl)c(C(=O)O)n2)c1F  pest or weed control at 1000 g/ha            90
 3  C=CCCN(Cc1ccccc1)c1nc(C2CC2)nc(C(=O)OC)c1Cl  pest or weed control at 1000 g/ha             0
 4  C=CCN(Cc1cccc(OC)c1OC)c1nc(C2CC2)nc(C(=O)OC)c1Cl  pest or weed control at 1000 g/ha             0
 5  COC(=O)c1nc(-c2ccc(C)cc2F)nc(NCc2ccco2)c1Cl  pest or weed control at 1000 g/ha            40
 6  COC(=O)c1nc(-c2cc(Cl)c(Cl)cc2Cl)nc(NCc2ccco2)c1Cl  pest or weed control at 1000 g/ha             0
 7  COC(=O)c1nc(-c2ccc(C(F)(F)F)c(Cl)c2)nc(NCc2ccco2)c1Cl  pest or weed control at 1000 g/ha             0
 8   COC(=O)c1nc(C2CC2)nc(N(C)Cc2cccnc2)c1Cl  pest or weed control at 1000 g/ha             0
 9  O=C(OCc1ccccc1)c1nc(C2CC2)nc(NCc2ccco2)c1Cl  pest or weed control at 1000 g/ha            70
10  COC(=O)c1nc(C2CC2)nc(N(C)Cc2ccc(C)cc2)c1Cl  pest or weed control at 1000 g/ha             0
11  COC(=O)c1nc(C2CC2)nc(N(C)Cc2ccc(F)cc2)c1Cl  pest or weed control at 1000 g/ha            40
12  C=Cc1c(NCc2ccco2)nc(-c2ccc(Cl)cc2)nc1C(=O)OC  pest or weed control at 1000 g/ha            20
13  CCCN(Cc1ccc(C)cc1)c1nc(C2CC2)nc(C(=O)OC)c1Cl  pest or weed control at 1000 g/ha            30
14  COC(=O)c1nc(-c2ccc(F)cc2)nc(NCc2ccco2)c1Cl  pest or weed control at 1000 g/ha             0
15  CCN(Cc1ccc(Br)s1)c1nc(C2CC2)nc(C(=O)OC)c1Cl  pest or weed control at 1000 g/ha             0
16  COC(=O)c1nc(C2CC2)nc(N(C)Cc2ccccc2[N+](=O)[O-])c1Cl  pest or weed control at 1000 g/ha            30
